The values you see were collected from patent US12427144B2.

Reported Dmax values for the following molecules.
Measured Target: Androgen Receptor (AR) (Homo sapiens, UniProt P10275)
Construct: endogenous in cells; host or cells: VCaP
Sequence (P10275 whole entry): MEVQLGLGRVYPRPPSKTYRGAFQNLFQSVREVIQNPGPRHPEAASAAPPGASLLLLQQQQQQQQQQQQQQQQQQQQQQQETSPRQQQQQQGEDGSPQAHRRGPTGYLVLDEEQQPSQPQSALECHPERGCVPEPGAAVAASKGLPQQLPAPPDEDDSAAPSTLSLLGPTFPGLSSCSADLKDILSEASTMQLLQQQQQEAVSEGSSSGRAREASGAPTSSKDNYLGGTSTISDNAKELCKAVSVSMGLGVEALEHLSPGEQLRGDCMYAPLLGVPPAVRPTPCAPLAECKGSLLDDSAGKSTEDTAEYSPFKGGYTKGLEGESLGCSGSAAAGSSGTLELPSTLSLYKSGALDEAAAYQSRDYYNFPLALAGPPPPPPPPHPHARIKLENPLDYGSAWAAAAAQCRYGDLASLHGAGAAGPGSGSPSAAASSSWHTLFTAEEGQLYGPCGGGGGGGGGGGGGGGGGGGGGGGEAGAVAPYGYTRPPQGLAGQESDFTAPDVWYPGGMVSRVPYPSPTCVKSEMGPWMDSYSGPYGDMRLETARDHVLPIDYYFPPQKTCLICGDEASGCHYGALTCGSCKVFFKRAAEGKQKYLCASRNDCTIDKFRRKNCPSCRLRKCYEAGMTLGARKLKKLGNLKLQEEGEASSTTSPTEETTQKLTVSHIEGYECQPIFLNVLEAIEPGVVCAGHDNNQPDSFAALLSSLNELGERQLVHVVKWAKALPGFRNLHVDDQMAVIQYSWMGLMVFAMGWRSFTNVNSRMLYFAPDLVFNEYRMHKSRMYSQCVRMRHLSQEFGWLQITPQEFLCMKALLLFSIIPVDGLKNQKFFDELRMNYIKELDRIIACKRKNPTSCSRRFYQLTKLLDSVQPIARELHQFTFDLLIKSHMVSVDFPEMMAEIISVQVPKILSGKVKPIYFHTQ
Measurement Description: AR immunofluorescence staining, high content imager, VCaP cells
Type: cell-based
Study Conditions: maximal AR degradation

Previously resolved entries follow.
I'm curious: which Dmax was measured for COc1cc(O[C@H]2C[C@H](N3CCOC4(CCN(c5ccc(C(=O)N[C@H]6C(C)(C)[C@H](Oc7cc(C)c(C#N)c(C)c7)C6(C)C)cc5)CC4)C3)C2)ccc1C(=O)N[C@H]1CCC(=O)NC1=O tested on Androgen Receptor (AR) (Homo sapiens, UniProt P10275)?
≥ 70%

I'm curious: which Dmax was measured for COc1cc(O[C@H]2C(C)(C)[C@H](NC(=O)c3ccc(N4CCC(O[C@H]5C[C@H](Oc6ccc(C(=O)NC7CCC(=O)NC7=O)c(OC)c6)C5)CC4)cc3)C2(C)C)ccc1C#N (stereo partly shown) tested on Androgen Receptor (AR) (Homo sapiens, UniProt P10275)?
≥ 70%

I'm curious: which Dmax was measured for N#Cc1ccc(O[C@H]2CC[C@H](NC(=O)c3ccc(N4CCC(CN5CCN(c6ccc(C(=O)NC7CCC(=O)NC7=O)nn6)CC5)CC4)nn3)CC2)cc1Cl (stereo partly shown) tested on Androgen Receptor (AR) (Homo sapiens, UniProt P10275)?
≥ 70%

I'm curious: which Dmax was measured for COc1cc(O[C@H]2C(C)(C)[C@H](NC(=O)c3ccc(N4CCC(CN5CCN(c6ccc(C(=O)N[C@H]7CCC(=O)NC7=O)c(F)c6)CC5)CC4)cc3)C2(C)C)ccc1C#N tested on Androgen Receptor (AR) (Homo sapiens, UniProt P10275)?
≥ 70%

I'm curious: which Dmax was measured for COc1cc(O[C@H]2C(C)(C)[C@H](NC(=O)c3ccc(N4CCO[C@H](CN(C(C)C)[C@H]5C[C@@H](Oc6ccc(C(=O)N[C@H]7CCC(=O)NC7=O)c(F)c6)C5)C4)cc3)C2(C)C)ccc1C#N tested on Androgen Receptor (AR) (Homo sapiens, UniProt P10275)?
≥ 70%

I'm curious: which Dmax was measured for CC(C)N(CC1CCN(c2cnc(C(=O)N[C@H]3CC[C@H](Oc4ccc(C#N)c(Cl)c4)CC3)cn2)CC1)[C@H]1C[C@H](Oc2ccc(C(=O)NC3CCC(=O)NC3=O)c(F)c2)C1 (stereo partly shown) tested on Androgen Receptor (AR) (Homo sapiens, UniProt P10275)?
50 to 70%

I'm curious: which Dmax was measured for COc1cc(O[C@H]2C(C)(C)[C@H](NC(=O)c3ccc(N4CCO[C@@H](CN(C(C)C)[C@H]5C[C@H](Oc6ccc(C(=O)N[C@H]7CCC(=O)NC7=O)c(F)c6)C5)C4)cc3)C2(C)C)ccc1C#N tested on Androgen Receptor (AR) (Homo sapiens, UniProt P10275)?
≥ 70%

I'm curious: which Dmax was measured for CC(C)N(CC1CCN(c2cnc(C(=O)N[C@H]3CC[C@H](Oc4ccc(C#N)c(Cl)c4)CC3)cn2)CC1)[C@H]1C[C@H](Oc2ccc(C(=O)NC3CCC(=O)NC3=O)cc2)C1 (stereo partly shown) tested on Androgen Receptor (AR) (Homo sapiens, UniProt P10275)?
≥ 70%

I'm curious: which Dmax was measured for COc1cc(O[C@H]2C(C)(C)[C@H](NC(=O)c3ccc(N4CCC(CN5CCN(c6ccc(C(=O)N[C@H]7CCC(=O)NC7=O)cn6)CC5)CC4)cc3)C2(C)C)ccc1C#N tested on Androgen Receptor (AR) (Homo sapiens, UniProt P10275)?
≥ 70%

API: the following record is the query input.
I'm curious: which Dmax was measured for CC1(C)[C@H](NC(=O)c2ccc(N3CCC(CN4CCN(c5ccc(C(=O)NC6CCC(=O)NC6=O)c(F)c5)CC4)CC3)nn2)C(C)(C)[C@H]1Oc1ccc(C#N)c(Cl)c1 (stereo partly shown) tested on Androgen Receptor (AR) (Homo sapiens, UniProt P10275)?
50 to 70%
